- target.or.system: Potassium voltage-gated channel subfamily KQT member 1 (Homo sapiens) (UniProt P51787)
- Sequence (P51787 whole entry, looked up): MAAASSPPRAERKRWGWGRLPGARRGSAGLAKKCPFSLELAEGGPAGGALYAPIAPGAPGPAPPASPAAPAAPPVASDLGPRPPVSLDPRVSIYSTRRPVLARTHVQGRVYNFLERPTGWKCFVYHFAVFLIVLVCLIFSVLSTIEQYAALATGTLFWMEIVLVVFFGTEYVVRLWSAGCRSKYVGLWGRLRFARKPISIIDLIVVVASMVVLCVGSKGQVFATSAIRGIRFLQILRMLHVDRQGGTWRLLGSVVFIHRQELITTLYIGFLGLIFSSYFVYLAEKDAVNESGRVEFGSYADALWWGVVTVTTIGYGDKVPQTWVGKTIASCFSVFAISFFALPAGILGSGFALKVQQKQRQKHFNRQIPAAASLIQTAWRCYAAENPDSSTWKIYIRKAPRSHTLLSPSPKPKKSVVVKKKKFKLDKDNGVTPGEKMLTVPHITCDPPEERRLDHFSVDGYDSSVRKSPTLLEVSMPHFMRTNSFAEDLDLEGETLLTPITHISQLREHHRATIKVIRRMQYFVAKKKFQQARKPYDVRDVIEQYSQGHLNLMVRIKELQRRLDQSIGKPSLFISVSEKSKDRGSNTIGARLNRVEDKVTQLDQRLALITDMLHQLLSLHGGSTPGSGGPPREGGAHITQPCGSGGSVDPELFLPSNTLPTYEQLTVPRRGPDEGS
- test.summary: KCNQ1 potassium channel potentiators, confirmation, FluxOR thallium flux, CHO cells, duplicates (AID 493007)
- measurement.context: KCNQ1 cell line, FluxOR thallium flux fluorescence, at 10 µM, % of reference activator effect, buffer zero
Calls of active or inactive are those of the source.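 Rule for the calls: active = potentiation averaged over duplicate wells exceeding buffer-only control mean by more than 3 SD; inactive = the rest.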
Respond with a class label; see active, inactive

Solved entries (count: 2):
smiles.representation: Cc1cc(C)cc(OCC(=O)NNC(=O)c2cc3ccccc3o2)c1
target.or.system: Potassium voltage-gated channel subfamily KQT member 1 (Homo sapiens) (UniProt P51787)
category: inactive
//
smiles.representation: CCCCNC(=O)/C(C#N)=C/c1ccc2c(c1)OCCO2
target.or.system: Potassium voltage-gated channel subfamily KQT member 1 (Homo sapiens) (UniProt P51787)
category: active

Moving on to another compound below.
Ask: Hi, do you know how O=C(COc1ccccc1Cl)NC(=S)N1CCc2ccccc21 came out in this test?
Result: inactive
